# Lookup of reported absolute recovery keyed by entry
# test summary: absolute recovery over vacuum-assisted evaporative concentration; higher = better recovery
# condition parameters: wastewater influent; enrichment method: VEC
Phrase the answer as number then unit, nothing more needed.

Ask: Name the recorded absolute recovery of the item CON(C)C(=O)Nc1ccc(Cl)c(Cl)c1 [Linuron] in your answer.
Result: 99.8%

Ask: Name the recorded absolute recovery of the item COc1ccc(CN(CC[NH+](C)C)c2ccccn2)cc1 [Pyrilamine] in your answer.
Result: 99.9%

Ask: Name the recorded absolute recovery of the item O=C(Nc1ccccc1)N(Cc1ccc(Cl)cc1)C1CCCC1 [Pencycuron] in your answer.
Result: 124%

Ask: Name the recorded absolute recovery of the item CCNc1nc(Cl)nc(NCC)n1 [Simazin] in your answer.
Result: 106%

Next:
Ask: Name the recorded absolute recovery of the item N#CCNC(=O)c1cnccc1C(F)(F)F [Flonicamid] in your answer.
Result: 106%

Ask: Name the recorded absolute recovery of the item Oc1cc(Cl)ccc1Oc1ccc(Cl)cc1Cl [Triclosan] in your answer.
Result: 117%

Ask: Name the recorded absolute recovery of the item CC(=O)OCC(=O)C1(O)C(C)CC2C3CCC4=CC(=O)C=CC4(C)C3(F)C(O)CC21C (stereo not drawn) [Betamethasone 21-acetate C] in your answer.
Result: 85.2%

Ask: Name the recorded absolute recovery of the item CCCCCCCCCCCCCC[N+](C)(C)CCCCCCCCCCCCCC [Dimethylditetradecylammonium (=ATMAC-18)] in your answer.
Result: 4.7%

###

# test summary: absolute recovery over mixed-bed multilayer solid-phase extraction; higher = better recovery
# condition parameters: surface water; enrichment method: SPE
outcome measure: absolute recovery (%)
Field format: number, assumed %, no unit text.

Here is how some compounds turned out for absolute recovery.
Ask: Name the recorded absolute recovery of the item COc1ccc(NC(=O)N(C)C)cc1Cl in your answer.
Result: 92.8

Ask: Name the recorded absolute recovery of the item O=[N+]([O-])N=C1NCCN1Cc1ccc(Cl)nc1 in your answer.
Result: 96.7

Ask: Name the recorded absolute recovery of the item CCCCC(C#N)(Cn1cncn1)c1ccc(Cl)cc1 (stereo not given) in your answer.
Result: 91.9

Ask: Name the recorded absolute recovery of the item CC(C)OC(=O)C(C)(C)Oc1ccc(C(=O)c2ccc(Cl)cc2)cc1 in your answer.
Result: 86.7

Turning to the following compound.
Ask: Name the recorded absolute recovery of the item COc1ccc2c3c1OC1C(O)C=CC4C(C2)[NH+](C)CCC341 (stereo not given) in your answer.
Result: 92.6

###

# Lookup of reported absolute recovery keyed by entry
# test summary: absolute recovery over vacuum-assisted evaporative concentration; higher = better recovery
# condition parameters: wastewater effluent; enrichment method: VEC
Field format: number, assumed %, no unit text.

Here is how some molecules turned out for absolute recovery.
Ask: Name the recorded absolute recovery of the item CC12CCC(=O)C=C1CCC1C2C(=O)CC2(C)C1CCC2(O)C(=O)CO (stereo not drawn) in your answer.
Result: 99.8

Ask: Name the recorded absolute recovery of the item Cc1cccc(C)c1NC(=O)C1CCCC[NH+]1C (stereo not drawn) [Mepivacaine] in your answer.
Result: 106

Ask: Name the recorded absolute recovery of the item Cn1cc(C(=O)Nc2ccc(F)cc2-c2ccc(Cl)c(Cl)c2)c(C(F)F)n1 in your answer.
Result: 109

Ask: Name the recorded absolute recovery of the item CNC(=O)ON=C(C)SC in your answer.
Result: 98.3

Next:
Ask: Name the recorded absolute recovery of the item CN1CCN(C)C1=O in your answer.
Result: 96.5

Ask: Name the recorded absolute recovery of the item CCCN(CCOc1c(Cl)cc(Cl)cc1Cl)C(=O)n1ccnc1 in your answer.
Result: 103

Ask: Name the recorded absolute recovery of the item CCC1OC(=O)C(C)C(OC2CC(C)(OC)C(O)C(C)O2)C(C)C(OC2OC(C)CC([NH+](C)C)C2O)C(C)(O)CC(C)C(=O)C(C)C(O)C1(C)O (stereo not drawn) in your answer.
Result: 113

Ask: Name the recorded absolute recovery of the item CN1C(=O)CCC1c1cccnc1 (stereo not drawn) in your answer.
Result: 100

Ask: Name the recorded absolute recovery of the item CC(C)CN(CC(O)C(Cc1ccccc1)NC(=O)OC1COC2OCCC12)S(=O)(=O)c1ccc(N)cc1 (stereo not drawn) in your answer.
Result: 101

Ask: Name the recorded absolute recovery of the item CC(C)N1C(=O)c2ccccc2[N-]S1(=O)=O in your answer.
Result: 105

Ask: Name the recorded absolute recovery of the item CC1(C)CC1C(=O)NC(=CCCCCSCC([NH3+])C(=O)[O-])C(=O)[O-] (stereo not drawn) in your answer.
Result: 103

Ask: Name the recorded absolute recovery of the item C[NH+]1CCN(C2=Nc3cc(Cl)ccc3Nc3ccccc32)CC1 in your answer.
Result: 102

Ask: Name the recorded absolute recovery of the item O=S(=O)([O-])NC1CCCCC1 in your answer.
Result: 104

###

# Lookup of reported absolute recovery keyed by entry
# test summary: absolute recovery over vacuum-assisted evaporative concentration; higher = better recovery
# condition parameters: wastewater influent; enrichment method: VEC
Field format: number, assumed %, no unit text.

Here is how some compounds turned out for absolute recovery.
Ask: Name the recorded absolute recovery of the item CC1CC2C3CCC4=CC(=O)C=CC4(C)C3(F)C(O)CC2(C)C1(O)C(=O)CO (centres undefined) [Betamethasone] in your answer.
Result: 102

Ask: Name the recorded absolute recovery of the item COC(=O)NC(C(=O)NC(Cc1ccccc1)C(O)CN(Cc1ccc(-c2ccccn2)cc1)NC(=O)C(NC(=O)OC)C(C)(C)C)C(C)(C)C (centres undefined) in your answer.
Result: 61.4

Ask: Name the recorded absolute recovery of the item CC(C)[NH+](CCC(C(N)=O)(c1ccccc1)c1ccccn1)C(C)C (centres undefined) [Disopyramide] in your answer.
Result: 106

Ask: Name the recorded absolute recovery of the item Nc1ccc(S(=O)(=O)[N-]c2nccs2)cc1 in your answer.
Result: 90.4

Ask: Name the recorded absolute recovery of the item CN(C(=O)CO)c1c(I)c(C(=O)NCC(O)CO)c(I)c(C(=O)NCC(O)CO)c1I (centres undefined) in your answer.
Result: 108

Ask: Name the recorded absolute recovery of the item CC1CC2C3CCC4=CC(=O)C=CC4(C)C3(F)C(O)CC2(C)C1(O)C(=O)CO (centres undefined) [Dexamethason] in your answer.
Result: 105

Next:
Ask: Name the recorded absolute recovery of the item CCCC[NH+]1CCCCC1C(=O)Nc1c(C)cccc1C (centres undefined) in your answer.
Result: 103

Ask: Name the recorded absolute recovery of the item O=C1C(Cl)C(CCl)CN1c1cccc(C(F)(F)F)c1 (centres undefined) in your answer.
Result: 60.5

Ask: Name the recorded absolute recovery of the item O=S(=O)([O-])c1ccc2ccccc2c1 in your answer.
Result: 88.2

Ask: Name the recorded absolute recovery of the item NS(=O)(=O)Cc1noc2ccccc12 [Zonisamide] in your answer.
Result: 101

Ask: Name the recorded absolute recovery of the item CC([NH3+])C(O)c1ccccc1 (centres undefined) in your answer.
Result: 96.1

###

# Lookup of reported absolute recovery keyed by entry
# test summary: absolute recovery over mixed-bed multilayer solid-phase extraction; higher = better recovery
# condition parameters: nanopure water; enrichment method: SPE
Field format: number, assumed %, no unit text.

Ask: Name the recorded absolute recovery of the item CC12CC3CC(C)(C1)CC([NH3+])(C3)C2 [Memantine] in your answer.
Result: 83.4

Next:
Ask: Name the recorded absolute recovery of the item COC=C(C(=O)OC)c1ccccc1COc1cccc(C(F)(F)F)n1 in your answer.
Result: 94.1

Ask: Name the recorded absolute recovery of the item CC[NH+](CC)CCNC(=O)c1cc(Cl)c(N)cc1OC in your answer.
Result: 86.5

Ask: Name the recorded absolute recovery of the item C[NH2+]C1(c2ccccc2Cl)CCCCC1=O (configuration not stated) in your answer.
Result: 83.7

Ask: Name the recorded absolute recovery of the item COC(=O)c1ccc(C(F)(F)F)nc1S(=O)(=O)[N-]C(=O)Nc1nc(OC)cc(OC)n1 in your answer.
Result: 98.2

Ask: Name the recorded absolute recovery of the item CC(C)c1c(C(=O)Nc2ccccc2)c(-c2ccccc2)c(-c2ccc(F)cc2)n1CCC(O)CC(O)CC(=O)[O-] (configuration not stated) in your answer.
Result: 31

Ask: Name the recorded absolute recovery of the item Cc1ccc(NC(=O)N(C)C)cc1Cl in your answer.
Result: 98

Ask: Name the recorded absolute recovery of the item COC(=O)c1sccc1S(=O)(=O)[N-]C(=O)Nc1nc(C)nc(OC)n1 in your answer.
Result: 98.9

###

# test summary: absolute recovery over mixed-bed multilayer solid-phase extraction; higher = better recovery
# condition parameters: surface water; enrichment method: SPE
outcome measure: absolute recovery (%)
Field format: number, assumed %, no unit text.

Ask: Name the recorded absolute recovery of the item CC1(C)CON(Cc2ccccc2Cl)C1=O [Clomazon] in your answer.
Result: 92.1

Ask: Name the recorded absolute recovery of the item CCCC(NOCC)=C1C(=O)CC(C2CCCSC2)CC1=O (stereo not drawn) [Cycloxydim] in your answer.
Result: 78.4

Next:
Ask: Name the recorded absolute recovery of the item CS(=O)(=O)c1ccc(C(=O)[O-])c(Cl)c1 [Sulcotrion-CMBA] in your answer.
Result: 38
